Provenance of the data: PubChem BioAssay (NCATS)

# Tested on: UISO
# procedureSummary: qHTS assay to identify novel small-molecules to repurpose for Merkel cell carcinoma treatment (AID 1296009); further: nearly all actives have a fitted effect of over 60% in size
# conditionParameters: MCC and control cell lines, CellTiter-Glo viability, 72 h; series mostly up to 46 µM
Results filed as inconclusive are left out. Calls of active or inactive are those of the source. The call rests on the fitted dose curve; in most records, active means well fitted inhibition curve with a large enough effect; inconclusive means small, poorly fitted or top-dose-only effect; inactive means flat fitted curve, though single readings scatter.
I would appreciate it if you answered using one of these outcomes: active, inactive

{"compound": "CN1[C@@H]2CCC[C@@H]1CC(NC(=O)c1nn(C)c3ccccc13)C2 (some centres undefined)", "categoryLabel": "inactive"}
{"compound": "CO[C@H]1C[C@@H]2CC[C@@H](C)[C@@](O)(O2)C(=O)C(=O)N2CCCC[C@@H]2C(=O)O[C@H]([C@H](C)C[C@@H]2CC[C@H](OCCO)[C@H](OC)C2)CC(=O)[C@H](C)C=C(C)[C@@H](O)[C@@H](OC)C(=O)[C@H](C)C[C@H](C)C=CC=CC=C1C", "categoryLabel": "active"}
{"compound": "Oc1ccc(C2CCN(c3ccnc4ccccc34)CC2)cc1O", "categoryLabel": "inactive"}

Input: Identify the outcome logged in this assay for the compound shown: O=C1c2ccccc2-[n+]2ccc3c([nH]c4ccccc43)c21
Output: active
